Experimental target: Solute carrier family 2, facilitated glucose transporter member 1 (Homo sapiens) (UniProt P11166)
Sequence (P11166 whole entry): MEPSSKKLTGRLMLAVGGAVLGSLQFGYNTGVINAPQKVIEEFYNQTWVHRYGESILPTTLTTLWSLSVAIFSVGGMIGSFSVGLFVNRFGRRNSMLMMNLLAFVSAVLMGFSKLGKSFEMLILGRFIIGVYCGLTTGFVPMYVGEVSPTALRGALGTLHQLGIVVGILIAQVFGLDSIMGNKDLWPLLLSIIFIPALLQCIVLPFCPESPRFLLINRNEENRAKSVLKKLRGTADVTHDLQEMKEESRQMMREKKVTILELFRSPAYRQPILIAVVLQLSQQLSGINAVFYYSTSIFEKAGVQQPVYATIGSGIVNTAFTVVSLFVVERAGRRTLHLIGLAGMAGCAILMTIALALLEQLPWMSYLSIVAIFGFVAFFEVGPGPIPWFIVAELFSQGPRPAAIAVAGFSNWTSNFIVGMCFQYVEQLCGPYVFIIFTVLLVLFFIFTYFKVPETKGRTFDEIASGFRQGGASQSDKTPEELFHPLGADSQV
Test details: ST_JUDE_LEISH: Cytotoxicity at 2uM final concentration against transgenic Leishmania Mexicana promastigotes LmGLUT1 that are glucose transport deficient and complemented with the human glucose transporter GLUT1. Activity is measured by DNA content using SYBR green in vitro
Type: functional
Endpoint: inhibition (%)

Compound: CCC(C)c1ccc(Nc2nc(C)cc(N(CC)CCCN3CCCCC3)n2)cc1 (stereo not given)
Endpoint: inhibition
Obs value: -1.09
//
Compound: Cc1cc(OCc2ccncc2)cc2c1C(=O)CC(C)(C)O2
Endpoint: inhibition
Obs value: -0.52
//
Compound: CCCCCn1c(Sc2ccc(C#N)c([N+](=O)[O-])c2)nnc1-c1ccc(Cl)cc1
Endpoint: inhibition
Obs value: 4.31
//
Compound: CC(C)n1c(C2CCN(CC3CCN(C(=O)/C=C/c4ccc(Cl)c(Cl)c4)CC3)CC2)nc2ccccc21
Endpoint: inhibition
Obs value: 0.12
//
Compound: CC(=O)Nc1ccc(CN2CCC(CNC(=O)c3cc(-c4cccc(C(F)(F)F)c4)cs3)C2)cc1 (stereo not given)
Endpoint: inhibition
Obs value: -0.71

---

Experimental target: Glucose transporter (Leishmania mexicana)
Test details: ST_JUDE_LEISH: Cytotoxicity at 2uM final concentration against transgenic Leishmania Mexicana promastigotes LmGT2 that are glucose transport deficient and complemented with the L. Mexicana glucose transporter 2. Activity is measured by DNA content using SYBR green in vitro
Type: functional

Molecule: FC(F)(F)c1ccc2c(C=Cc3ccncc3)c[nH]c2c1
Unit spec: %
inhibition: 4.76

Molecule: Cc1ccc(NC(=O)c2ccc3ncccc3c2)cc1OC1CCN(Cc2ccc(F)cc2)C1 (stereo not given)
Unit spec: %
inhibition: 1.26

Molecule: Cc1noc(C)c1-c1cccc(CNCc2cccc(-c3cccc(-c4nc5cccc(C)c5[nH]4)c3)c2)c1
Unit spec: %
inhibition: -0.78

Molecule: COc1ccc(Cl)cc1N1CCN(CCCNC(=O)c2ccc(-c3nc4ccc(C(F)(F)F)cc4[nH]3)c(C)c2)CC1
Unit spec: %
inhibition: 0.17

Molecule: CCC(=O)c1cc(C(=O)NCCc2cccc(OC)c2)ccc1OC
Unit spec: %
inhibition: 11.3

Molecule: O=C(Nc1cccc(-c2nn3ccccc3c2-c2ccnc(Nc3cccc(F)c3)n2)c1)C1CCCCC1
Unit spec: %
inhibition: -1.4

Molecule: O=C(Nc1ccc2c(c1)CCC2)c1nc(N2CCN(c3ccncc3)CC2)ccc1Cl
Unit spec: %
inhibition: 1.75

Molecule: CN(C)Cc1cccc(-c2cnc(N)c(-c3nc4cc(S(C)(=O)=O)ccc4[nH]3)c2)c1
Unit spec: %
inhibition: 3.97

Molecule: NC1CCN(Cc2cccc(-c3csc(-c4nc5ccccc5[nH]4)c3)c2)C1 (stereo not given)
Unit spec: %
inhibition: 4.6

Molecule: COc1c(Br)cc(Br)cc1C(C)=O
Unit spec: %
inhibition: -0.79

---

Reported inhibition is given for each of the following molecules.
Experimental target: Solute carrier family 2, facilitated glucose transporter member 1 (Homo sapiens) (UniProt P11166)
Test details: ST_JUDE_LEISH: Cytotoxicity at 2uM final concentration against transgenic Leishmania Mexicana promastigotes LmGLUT1 that are glucose transport deficient and complemented with the human glucose transporter GLUT1. Activity is measured by DNA content using SYBR green in vitro
Type: functional

Molecule: COc1ccc(C2(CNCC(O)c3cccc([N+](=O)[O-])c3)CCCC2)cc1OC (stereo not given)
inhibition: 2.7%
--
Molecule: O=C(N[C@@H](CC1CCCCC1)C(=O)NCCN1CCOCC1)c1ccc(O)c(-c2ccc(Cl)c(Cl)c2)c1
inhibition: -0.52%
--
Molecule: COc1ccc2c(=NN=Cc3ccc(OC)c4ccccc34)cc(C)[nH]c2c1
inhibition: 0.09%
--
Molecule: O=C(Nc1cccnc1)c1cn(-c2ccccc2)nc1-c1cccs1
inhibition: 3.18%
--
Molecule: CC(C)(CNC(=O)C1CCN(CCOc2ccc(Cl)cc2)CC1)c1nc(-c2ccc(Cl)c(O)c2)c(-c2ccncc2)[nH]1
inhibition: 0.46%
